Test: Total clearance in iv dosed rat
Assay type: ADME, organism-based
Details: in vivo
Measured property: clearance

Inquiry: Entry `CC(C)(CCC(C(N)=O)(c1ccccc1)c1ccccc1)N1CC(Oc2cccc(O)c2)C1` : reported clearance = ?
Reply text: 134 mL/min/kg

----------
Target: Muscarinic acetylcholine receptor M5 (Homo sapiens)
Sequence (P08912 whole entry): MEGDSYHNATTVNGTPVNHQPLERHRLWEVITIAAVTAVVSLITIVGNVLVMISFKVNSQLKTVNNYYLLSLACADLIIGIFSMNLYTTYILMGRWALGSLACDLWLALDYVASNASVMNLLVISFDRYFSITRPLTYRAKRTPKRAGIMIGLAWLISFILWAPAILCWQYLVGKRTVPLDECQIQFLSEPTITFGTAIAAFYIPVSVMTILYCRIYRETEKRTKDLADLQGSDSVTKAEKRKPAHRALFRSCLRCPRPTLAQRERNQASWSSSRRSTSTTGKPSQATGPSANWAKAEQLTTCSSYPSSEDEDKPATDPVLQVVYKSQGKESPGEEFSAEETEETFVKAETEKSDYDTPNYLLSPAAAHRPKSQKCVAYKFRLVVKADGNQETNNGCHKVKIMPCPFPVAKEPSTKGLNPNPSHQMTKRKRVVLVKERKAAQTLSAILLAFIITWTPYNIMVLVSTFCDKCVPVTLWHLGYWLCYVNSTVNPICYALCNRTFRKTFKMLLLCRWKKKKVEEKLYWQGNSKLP
Assay: Displacement of [3H]-NMS from human recombinant M5 receptor expressed in CHO cells after 24 hrs by filter binding assay
Readings of Ki for the listed compounds
Report as a plain number; the unit nM is understood.

CC(C)(CCC(C(N)=O)(c1ccccc1)c1ccccc1)N1CC(Oc2cccc(O)c2)C1	0.169

Consider now this further compound.
Inquiry: Entry C[N+]1(C)[C@@H]2C[C@@H](OC(=O)C(O)(c3cccs3)c3cccs3)C[C@H]1[C@@H]1O[C@@H]12.O.[Br-] [TIOTROPIUM BROMIDE] has what Ki?
Reply text: 0.0266

----------
The reader will find reported microsomal CLint values listed item by item below.
Test: Intrinsic clearance in human liver microsomes assessed per mg of protein by glucuronidation assay in presence of Brijj-58 and UDPGA
Report the value in µL/min/mg with no unit label.

Inquiry: # query: microsomal CLint of entry `CC(C)(CCC(C(N)=O)(c1ccccc1)c1ccccc1)N1CC(OCc2cccc(O)c2)C1`
Reply text: 13

----------
Target: Muscarinic acetylcholine receptor M3 (Cavia porcellus) (UniProt Q8VH26)
Sequence (Q8VH26 1-587): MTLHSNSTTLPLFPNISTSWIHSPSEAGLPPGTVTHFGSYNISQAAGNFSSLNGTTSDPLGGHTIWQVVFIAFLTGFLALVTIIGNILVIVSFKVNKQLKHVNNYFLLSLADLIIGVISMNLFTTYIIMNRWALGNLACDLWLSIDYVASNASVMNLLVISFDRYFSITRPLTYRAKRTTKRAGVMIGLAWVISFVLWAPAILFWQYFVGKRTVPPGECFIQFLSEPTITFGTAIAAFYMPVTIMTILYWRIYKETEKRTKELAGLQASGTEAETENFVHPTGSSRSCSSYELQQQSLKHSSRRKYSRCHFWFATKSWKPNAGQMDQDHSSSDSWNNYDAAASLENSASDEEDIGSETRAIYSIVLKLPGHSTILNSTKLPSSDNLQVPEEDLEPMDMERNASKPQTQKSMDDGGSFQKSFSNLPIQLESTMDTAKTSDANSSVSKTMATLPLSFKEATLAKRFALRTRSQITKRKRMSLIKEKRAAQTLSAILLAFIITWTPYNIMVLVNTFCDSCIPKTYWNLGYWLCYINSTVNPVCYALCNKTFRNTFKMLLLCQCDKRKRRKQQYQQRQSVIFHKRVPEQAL
Experiment: Antagonist activity at M3 receptor in Dunkin-Hartley guinea pig tracheal strips assessed as time taken for electrically field-stimulated contractile response to recover by 25 percent of inhibition at Emax after 2 hrs
Format: functional
Property: TIME; scope: individual compounds

CC(C)(CCC(C(N)=O)(c1ccccc1)c1ccccc1)N1CC(Oc2cccc(O)c2)C1	> 16 h

Inquiry: Sample `CC(C)(CCC(C(N)=O)(c1ccccc1)c1ccccc1)N1CC(Oc2cccc(O)c2F)C1` — what was its TIME?
Reply text: > 16 h

----------
Assay: Plasma protein binding in iv dosed rat
Format: ADME, organism-based
Conditions: read-out: PPB (converted)
Measured property: fraction unbound
No unit in the answer, please; the number alone is enough.

Inquiry: Would you kindly share the measured fraction unbound for `CC(C)(CCC(C(N)=O)(c1ccccc1)c1ccccc1)N1CC(Oc2cccc(O)c2)C1` ?
Reply text: 0.065

----------
Target: Muscarinic acetylcholine receptor M2 (Homo sapiens, UniProt P08172)
Sequence (P08172 whole entry): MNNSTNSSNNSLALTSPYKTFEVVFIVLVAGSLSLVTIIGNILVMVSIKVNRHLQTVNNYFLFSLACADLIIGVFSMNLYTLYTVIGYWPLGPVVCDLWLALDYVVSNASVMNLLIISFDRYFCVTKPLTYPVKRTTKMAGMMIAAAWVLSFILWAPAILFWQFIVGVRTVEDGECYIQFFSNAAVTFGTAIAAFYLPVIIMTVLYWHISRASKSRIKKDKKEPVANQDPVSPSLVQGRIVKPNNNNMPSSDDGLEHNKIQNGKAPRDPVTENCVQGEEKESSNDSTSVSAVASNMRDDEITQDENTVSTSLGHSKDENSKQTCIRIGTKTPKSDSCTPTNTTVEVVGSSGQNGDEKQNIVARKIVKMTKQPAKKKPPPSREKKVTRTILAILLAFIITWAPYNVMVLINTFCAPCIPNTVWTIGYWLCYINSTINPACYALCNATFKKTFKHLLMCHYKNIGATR
Assay: Displacement of [3H]-NMS from human recombinant M2 receptor expressed in CHO cells after 2 hrs by filter binding assay
Type: cell-based
Measured property: Ki (nM)
# value in nM; strip the unit string

CC(C)(CCC(C(N)=O)(c1ccccc1)c1ccccc1)N1CC(Oc2ccccc2)C1	0.056
NC(=O)C(CCCN1CC[C@H](Oc2ccccc2)C1)(c1ccccc1)c1ccccc1	15
CC(C)(CCC(C(N)=O)(c1ccccc1)c1ccccc1)N1CC[C@@H](Oc2ccccc2)C1	12
CC(C)(CCC(C(N)=O)(c1ccccc1)c1ccccc1)N1CC[C@H](Oc2ccccc2)C1	1.6

# context switch: different compound, same Ki
Inquiry: Return reported Ki; argument: `CC(C)(CCC(C(N)=O)(c1ccccc1)c1ccccc1)N1CCC(Oc2ccccc2)CC1`
Reply text: 2.6

----------
Target: Muscarinic acetylcholine receptor M1 (Homo sapiens, UniProt P11229)
Sequence (P11229 whole entry): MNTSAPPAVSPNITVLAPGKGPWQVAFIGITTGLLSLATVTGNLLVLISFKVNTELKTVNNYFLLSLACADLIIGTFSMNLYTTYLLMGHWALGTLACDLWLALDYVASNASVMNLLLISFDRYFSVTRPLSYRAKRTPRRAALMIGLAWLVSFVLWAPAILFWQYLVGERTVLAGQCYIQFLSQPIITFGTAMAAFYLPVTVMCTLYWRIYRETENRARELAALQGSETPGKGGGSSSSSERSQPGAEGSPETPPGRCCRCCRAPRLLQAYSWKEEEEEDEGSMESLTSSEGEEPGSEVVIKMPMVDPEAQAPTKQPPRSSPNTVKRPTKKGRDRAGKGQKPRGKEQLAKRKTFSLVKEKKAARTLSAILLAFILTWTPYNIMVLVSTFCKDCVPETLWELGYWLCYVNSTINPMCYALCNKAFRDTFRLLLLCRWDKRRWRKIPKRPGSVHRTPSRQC
Assay: Displacement of [3H]-NMS from human recombinant M1 receptor expressed in CHO cells after 24 hrs by filter binding assay
Measured property: Ki (nM)
Provide only the numeric value, understood in nM.

Inquiry: For the compound shown here, CC(C)(CCC(C(N)=O)(c1ccccc1)c1ccccc1)N1CC(Oc2cccc(O)c2)C1 [PF-03635659] , give the reported Ki.
Reply text: 0.115
